# TESTED ON: GECFINDER-SβF
# PROTOCOL DESCRIPTION: Fluorescence dose-response of purified binding-pocket-engineered sensors (0.75 uM) in 100 mM Tris-HCl pH 7.5, room temperature, 1 mM ATP, 2.5 mM MgCl2, excitation 460 or 480 nm, emission 510 nm; logistic five-parameter fit.
# CONDITION NOTES: n = 3
MEASURE: pEC50
// returns pEC50 (minus log10 of molar concentration), number only

Please review the entries below; each comes with its answer.
>  <SMILES REPR>
N[C@@H](Cc1ccccc1)C(=O)O

>  <MEASURE>
pEC50

>  <OBSERVED>
3.63

$$$$
>  <SMILES REPR>
N[C@@H](CC(=O)O)c1ccccc1

>  <MEASURE>
pEC50

>  <OBSERVED>
5.13

$$$$

As a next step, examine the compound that follows.
Query: State, in one line, measured pEC50 of `N[C@H](CC(=O)O)c1ccccc1`
Reply: 4.26

* * *

# TESTED ON: GECFINDER-Phe2 (Aneurinibacillus migulanus)
# Construct: GrsA-PheA-PCP; cpEGFP inserted in hinge B, linkers CV-LL
# PROTOCOL DESCRIPTION: Fluorescence dose-response of purified cpEGFP sensors (0.75 uM) in 100 mM Tris-HCl pH 7.5, room temperature, 1 mM ATP, 2.5 mM MgCl2; excitation 400, 460 or 480 nm by sensor, emission 510 nm; logistic five-parameter fit.
# CONDITION NOTES: n = 3
MEASURE: EC50 (nM)
Please give a number only; it is taken to be in nM.

Query: State, in one line, measured EC50 of N[C@@H](Cc1ccccc1)C(=O)O [Phe, phenylalanine]
Reply: 1470

* * *

# TESTED ON: GECFINDER-Phe3 (Aneurinibacillus migulanus)
# Construct: gene grsA; GrsA-PheA-PCP; cpEGFP inserted in hinge B, linkers VF-QS
# PROTOCOL DESCRIPTION: Fluorescence dose-response of purified […]-Phe3 with phenylalanine in 100 mM Tris at pH 6.5, room temperature, 1 mM ATP, 2.5 mM MgCl2.
# Format: biochemical
# CONDITION NOTES: n = 3
MEASURE: EC50
I'd appreciate it if you included the unit after the number.

Query: State, in one line, measured EC50 of N[C@@H](Cc1ccccc1)C(=O)O [Phe, phenylalanine]
Reply: 2.03 µM

* * *

# TESTED ON: GECFINDER-Phe3.1 (Aneurinibacillus migulanus, UniProt P0C061, F234I)
# PROTOCOL DESCRIPTION: Fluorescence dose-response of purified affinity-lowered […]-Phe3 mutants with phenylalanine, 100 mM Tris pH 7.5, room temperature, 1 mM ATP, 2.5 mM MgCl2.
MEASURE: EC50 (µM)
Please give a number only; it is taken to be in µM.

Query: State, for GECFINDER-Phe3.1 (Aneurinibacillus migulanus, UniProt P0C061, F234I), measured EC50 of the compound listed here: `N[C@@H](Cc1ccccc1)C(=O)O`
Reply: 7.51

* * *

# TESTED ON: GECFINDER-4CA (Nicotiana tabacum)
# Construct: cpEGFP with fixed linkers (LE-cpEGFP-TR) inserted between Leu439 and Ile440 in hinge A of Nt4CL2
# PROTOCOL DESCRIPTION: Fluorescence dose-response of purified cpEGFP sensors (0.75 uM) in 100 mM Tris-HCl pH 7.5, room temperature, 1 mM ATP, 2.5 mM MgCl2; excitation 400, 460 or 480 nm by sensor, emission 510 nm; logistic five-parameter fit.
# CONDITION NOTES: n = 3
MEASURE: EC50 (nM)
Please give a number only; it is taken to be in nM.

Query: State, for GECFINDER-4CA (Nicotiana tabacum), measured EC50 of the compound listed here: O=C(O)/C=C/c1ccc(O)cc1 [4-coumaric acid]
Reply: 1030

* * *

# PROTOCOL DESCRIPTION: Substrate (ligand) specificity of […]s
# Type: biochemical
# CONDITION NOTES: Supplementary Fig. 3 c; substrate specificity
Hi all, reminder that labels come from fluorescence response of GECFINDER to each substrate, AVE of 3 repeats, split as low: < -0.004; intermediate: ≥ -0.004 and < 0.02; high: ≥ 0.02

A selection of reference data follows.
>  <SMILES REPR>
N[C@H](CC(=O)O)c1ccccc1

>  <LABEL VALUE>
high

$$$$
>  <SMILES REPR>
N[C@@H](Cc1ccc(O)cc1)C(=O)O

>  <LABEL VALUE>
low

$$$$
>  <SMILES REPR>
C[C@H](N)C(=O)O

>  <LABEL VALUE>
high

$$$$
>  <SMILES REPR>
N[C@@H](CC(=O)O)C(=O)O

>  <LABEL VALUE>
high

$$$$
>  <SMILES REPR>
NCC(=O)O

>  <LABEL VALUE>
intermediate

$$$$
>  <SMILES REPR>
N[C@@H](Cc1cnc[nH]1)C(=O)O

>  <LABEL VALUE>
high

$$$$
>  <SMILES REPR>
NC(=O)C[C@H](N)C(=O)O

>  <LABEL VALUE>
intermediate

$$$$
>  <SMILES REPR>
C[C@@H](O)[C@H](N)C(=O)O

>  <LABEL VALUE>
low

$$$$

Query: Hi there! Could you help me figure out the category for `CC(C)C[C@H](N)C(=O)O` please?
Reply: low

Query: Hi there! Could you help me figure out the category for `N[C@@H](CS)C(=O)O` please?
Reply: intermediate

* * *

# TESTED ON: GECFINDER-Leu3 (Aneurinibacillus migulanus, UniProt P0C061, A301G/S447N/T278L)
# PROTOCOL DESCRIPTION: Fluorescence dose-response of purified binding-pocket-engineered sensors (0.75 uM) in 100 mM Tris-HCl pH 7.5, room temperature, 1 mM ATP, 2.5 mM MgCl2, excitation 460 or 480 nm, emission 510 nm; logistic five-parameter fit.
# CONDITION NOTES: n = 3
MEASURE: pEC50
// returns pEC50 (minus log10 of molar concentration), number only

>  <COMPOUND>
CC(C)C[C@H](N)C(=O)O [Leu, leucine]

>  <OBSERVED>
3.70

$$$$

As a next step, examine the compound that follows.
Query: State, in one line, measured pEC50 of N[C@@H](Cc1ccccc1)C(=O)O [Phe, phenylalanine]
Reply: 3.41

* * *

# TESTED ON: GECFINDER-Phe1 (Aneurinibacillus migulanus, UniProt P0C061)
# Construct: GrsA-PheA-PCP; cpEGFP inserted in hinge B, linkers CC-DR
# PROTOCOL DESCRIPTION: Fluorescence dose-response of purified cpEGFP sensors (0.75 uM) in 100 mM Tris-HCl pH 7.5, room temperature, 1 mM ATP, 2.5 mM MgCl2; excitation 400, 460 or 480 nm by sensor, emission 510 nm; logistic five-parameter fit.
# CONDITION NOTES: n = 3
# Protocol: Fig. 3 Dose–response curves and fluorescence spectrums of […]s. a, c, e, g, i, k Dose–response curve of purified […]s with increasing concentrations of ligand in 100 mM Tris-HCl buffer (pH=7.5). The normalized ΔF/F0 value increased after ligand binding. All data shown are mean ± S.D. (n = 3 biologically independent samples). b, d, f, h, j, l The fluorescence spectra of […]s changed as the ligand concentration increased. All data shown are mean ± S.D. (n = 3 biologically independent samples). […]
MEASURE: pEC50
// returns pEC50 (minus log10 of molar concentration), number only

Query: State, in one line, measured pEC50 of N[C@@H](Cc1ccccc1)C(=O)O [Phe, phenylalanine]
Reply: 5.81

* * *

# TESTED ON: GECFINDER-Ile1 (Bacillus licheniformis)
# Construct: BacA-IleA-PCP; cpEGFP inserted, linkers VY-CA
# PROTOCOL DESCRIPTION: Fluorescence dose-response of purified cpEGFP sensors (0.75 uM) in 100 mM Tris-HCl pH 7.5, room temperature, 1 mM ATP, 2.5 mM MgCl2; excitation 400, 460 or 480 nm by sensor, emission 510 nm; logistic five-parameter fit.
# CONDITION NOTES: n = 3
MEASURE: pEC50
// returns pEC50 (minus log10 of molar concentration), number only

Query: State, in one line, measured pEC50 of `CC[C@H](C)[C@H](N)C(=O)O`
Reply: 3.79

* * *

# TESTED ON: GECFINDER-Glu (Bacillus subtilis)
# Construct: PpsA-GluA-PCP; cpEGFP inserted, linkers HS-WL
# Sequence (P39845 434-1036): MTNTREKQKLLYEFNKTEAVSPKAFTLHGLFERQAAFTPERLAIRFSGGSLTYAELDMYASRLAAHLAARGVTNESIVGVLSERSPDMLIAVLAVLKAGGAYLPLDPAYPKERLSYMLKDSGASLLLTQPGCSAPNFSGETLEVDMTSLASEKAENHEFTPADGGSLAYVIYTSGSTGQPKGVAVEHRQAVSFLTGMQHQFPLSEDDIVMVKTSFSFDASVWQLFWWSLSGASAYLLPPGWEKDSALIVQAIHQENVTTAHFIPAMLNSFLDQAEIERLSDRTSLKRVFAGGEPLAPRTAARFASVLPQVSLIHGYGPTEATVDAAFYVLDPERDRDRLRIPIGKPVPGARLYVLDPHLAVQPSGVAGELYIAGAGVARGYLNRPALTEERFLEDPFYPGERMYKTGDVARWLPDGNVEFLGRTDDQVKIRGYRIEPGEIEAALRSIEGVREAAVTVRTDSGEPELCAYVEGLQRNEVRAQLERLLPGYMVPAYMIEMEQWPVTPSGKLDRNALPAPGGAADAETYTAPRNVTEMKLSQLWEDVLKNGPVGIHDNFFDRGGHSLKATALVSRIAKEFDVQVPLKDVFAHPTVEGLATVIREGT
# PROTOCOL DESCRIPTION: Fluorescence dose-response of purified cpEGFP sensors (0.75 uM) in 100 mM Tris-HCl pH 7.5, room temperature, 1 mM ATP, 2.5 mM MgCl2; excitation 400, 460 or 480 nm by sensor, emission 510 nm; logistic five-parameter fit.
# CONDITION NOTES: n = 3
MEASURE: EC50 (µM)
Please give a number only; it is taken to be in µM.

Query: State, in one line, measured EC50 of N[C@@H](CCC(=O)O)C(=O)O [Glu, glutamic acid]
Reply: 42.9
